target: fatty acyl CoA: cholesterol acyl transferase (ACAT) (Rattus norvegicus); construct: Rat adrenals were homogenized; from tissue; host or cells: rat adrenals, 1,000 x g supernatant containing the microsomal fraction; assay: Inhibition of enzymatic esterification of cholesterol (ACAT), rat adrenal microsomal supernatant; type: biochemical; settings: final concentration of test compound 5.2 μg./ml.; percent inhibition of the ACAT enzyme compared to control values
Sequence (O70536 whole entry): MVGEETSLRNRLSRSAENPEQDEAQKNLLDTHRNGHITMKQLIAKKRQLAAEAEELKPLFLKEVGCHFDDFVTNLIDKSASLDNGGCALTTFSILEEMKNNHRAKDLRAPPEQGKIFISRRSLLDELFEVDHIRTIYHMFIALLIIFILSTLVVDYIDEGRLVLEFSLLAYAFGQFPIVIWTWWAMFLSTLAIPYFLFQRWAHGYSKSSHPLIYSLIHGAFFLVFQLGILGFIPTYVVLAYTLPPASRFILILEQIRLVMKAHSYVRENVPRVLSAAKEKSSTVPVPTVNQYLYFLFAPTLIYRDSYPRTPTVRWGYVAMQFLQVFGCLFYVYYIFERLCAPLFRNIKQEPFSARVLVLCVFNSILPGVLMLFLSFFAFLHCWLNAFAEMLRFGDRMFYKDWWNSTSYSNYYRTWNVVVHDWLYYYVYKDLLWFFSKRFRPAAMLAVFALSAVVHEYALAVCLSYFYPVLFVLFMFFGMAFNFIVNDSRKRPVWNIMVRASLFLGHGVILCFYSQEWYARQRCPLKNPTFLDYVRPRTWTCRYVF
metric-name: inhibition at 5.2 µg/mL (%)

Some entries whose results are on file:
- structure-smiles: "CCOC(=O)c1ccc(N(CC)CCCc2ccc(Cl)cc2)cc1"
  units-of-measure: "%"
  inhibition at 5.2 µg/mL: 48
- structure-smiles: "CN(CCCc1ccc(Cl)cc1)c1ccc(C(=O)O)cc1"
  units-of-measure: "%"
  inhibition at 5.2 µg/mL: 24
- structure-smiles: "O=C(O)c1ccc(NCc2ccc(Cl)cc2)cc1"
  units-of-measure: "%"
  inhibition at 5.2 µg/mL: 6
- structure-smiles: "CCOC(=O)c1ccc(NC(c2ccc(Cl)cc2)c2ccc(Cl)cc2)cc1"
  units-of-measure: "%"
  inhibition at 5.2 µg/mL: 55
- structure-smiles: "O=C(O)c1ccc(NCC=C(c2ccc(Cl)cc2)c2ccc(Cl)cc2)cc1"
  units-of-measure: "%"
  inhibition at 5.2 µg/mL: 46

1 = O=C(O)c1ccc(NCC(c2ccc(Cl)cc2)c2ccc(Cl)cc2)cc1
2 = O=C(O)c1ccc(N(CCCc2ccc(Cl)cc2)CCCc2ccc(Cl)cc2)cc1
(Q) Would you mind telling me which has the lower recorded inhibition at 5.2 µg/mL between 1 and 2 ? I would appreciate it if you answered with the label of your choice.
(A) 1
(1: 19%, 2: 33%)

A = CCOC(=O)c1ccc(N(C)CCCc2ccc(Cl)cc2)cc1
B = O=C(O)c1ccc(NCCC(c2ccc(Cl)cc2)c2ccc(Cl)cc2)cc1
C = CCN(CCCc1ccc(Cl)cc1)c1ccc(C(=O)O)cc1
D = CCOC(=O)c1ccc(NCC=C(c2ccc(Cl)cc2)c2ccc(Cl)cc2)cc1
(Q) Please put the entries in order of rising inhibition at 5.2 µg/mL. # list labels per requested ordering
(A) B, C, A, D
(B: 21%, C: 33%, A: 53%, D: 81%)
